Assay: Plasma exposure after single s.c. injection, LC-MS/MS
Type: in vivo, mouse
Settings: male, C57BL/6N, mouse, plasma, sc, 10 umol/kg, mice, s.c. 10 μmol/kg
valueType: half-life (min)
Kindly answer with a numeric value in min, unit omitted.

Recorded result, `CCCCCCCCCCCCCC(=O)N(CCOCCOCCC(=O)N[C@@H](Cc1c[nH]cn1)C(=O)N[C@@H](Cc1c[nH]c2ccccc12)C(=O)N[C@@H](CC(C)C)C(=O)N[C@@H](CCCCN)C(=O)N[C@H](C(=O)O)C(C)C)CCOCCOCCC(=O)N[C@@H](Cc1c[nH]cn1)C(=O)N[C@@H](Cc1c[nH]c2ccccc12)C(=O)N[C@@H](CC(C)C)C(=O)N[C@@H](CCCCN)C(=O)N[C@H](C(=O)O)C(C)C` , half-life: 35.4

----------
Experiment: Plasma exposure after single s.c. injection, LC-MS/MS
Type: in vivo, mouse
Details: male, C57BL/6N, mouse, plasma, sc, 2 umol/kg, mice, s.c. 2 μmol/kg
valueType: half-life
Please don't drop the unit; write it after the number.

Reported half-life of `CCCCCCCCCCCCCC(=O)N(CCOCCOCCC(=O)N[C@@H](Cc1c[nH]cn1)C(=O)N[C@@H](Cc1c[nH]c2ccccc12)C(=O)N[C@@H](CC(C)C)C(=O)N[C@@H](CCCCN)C(=O)N[C@H](C(=O)O)C(C)C)CCOCCOCCC(=O)N[C@@H](Cc1c[nH]cn1)C(=O)N[C@@H](Cc1c[nH]c2ccccc12)C(=O)N[C@@H](CC(C)C)C(=O)N[C@@H](CCCCN)C(=O)N[C@H](C(=O)O)C(C)C` : 30 min

----------
Test: Plasma exposure after single s.c. injection, LC-MS/MS
Assay type: in vivo, mouse
Conditions: male, C57BL/6N, mouse, plasma, sc, 10 umol/kg; mice, s.c. 10 μmol/kg
valueType: half-life (min)
API: value field is a number in min; no unit string.

Sure, the documented half-life for CCCCCCCCCCCCCC(=O)N(CCOCCOCCC(=O)N[C@@H](Cc1c[nH]cn1)C(=O)N[C@@H](Cc1c[nH]c2ccccc12)C(=O)N[C@@H](CC(C)C)C(=O)N[C@@H](CCCCN)C(=O)N[C@H](C(=O)O)C(C)C)CCOCCOCCC(=O)N[C@@H](Cc1c[nH]cn1)C(=O)N[C@@H](Cc1c[nH]c2ccccc12)C(=O)N[C@@H](CC(C)C)C(=O)N[C@@H](CCCCN)C(=O)N[C@H](C(=O)O)C(C)C [mPD5, myristoyl-NPEG4-(HWLKV)2] is 36

----------
Experiment: Plasma exposure after repeated s.c. administration (10 + 2 + 2 + 2 + 2 μmol/kg), LC-MS/MS
Type: in vivo, mouse
Details: C57BL/6N, mouse, plasma, sc; s.c. 10 μmol/kg followed by 4 x 2 μmol/kg in 1-hour intervals
valueType: half-life (min)
Report the value in min with no unit label.

half-life reported for this compound `CCCCCCCCCCCCCC(=O)N(CCOCCOCCC(=O)N[C@@H](Cc1c[nH]cn1)C(=O)N[C@@H](Cc1c[nH]c2ccccc12)C(=O)N[C@@H](CC(C)C)C(=O)N[C@@H](CCCCN)C(=O)N[C@H](C(=O)O)C(C)C)CCOCCOCCC(=O)N[C@@H](Cc1c[nH]cn1)C(=O)N[C@@H](Cc1c[nH]c2ccccc12)C(=O)N[C@@H](CC(C)C)C(=O)N[C@@H](CCCCN)C(=O)N[C@H](C(=O)O)C(C)C` : 31.2
